meta.source: paper PMC11789008

- ASSAY TARGET: SARS-CoV-2 spike RBD, WT (Severe acute respiratory syndrome coronavirus 2)
- METHOD NOTES: biochemical
No end group written: not given here.
VALUE TYPE: Kd (nM)
Numbers only, in nM.

Bench note, SARS-CoV-2 spike RBD, WT (Severe acute respiratory syndrome coronavirus 2): DKLWILQKIYEIMVRLDEEGHGEASLMVSDLIYEFMKRD [CeSPIACE] , Kd reads 0.246
